# TEST TARGET: T1, recombinant human ADAMTS5 (R&D Systems cat #2198-AD) (human, UniProt Q9UNA0 262-622, limits assumed)
# T1 construct: bought protein
# T1 sequence: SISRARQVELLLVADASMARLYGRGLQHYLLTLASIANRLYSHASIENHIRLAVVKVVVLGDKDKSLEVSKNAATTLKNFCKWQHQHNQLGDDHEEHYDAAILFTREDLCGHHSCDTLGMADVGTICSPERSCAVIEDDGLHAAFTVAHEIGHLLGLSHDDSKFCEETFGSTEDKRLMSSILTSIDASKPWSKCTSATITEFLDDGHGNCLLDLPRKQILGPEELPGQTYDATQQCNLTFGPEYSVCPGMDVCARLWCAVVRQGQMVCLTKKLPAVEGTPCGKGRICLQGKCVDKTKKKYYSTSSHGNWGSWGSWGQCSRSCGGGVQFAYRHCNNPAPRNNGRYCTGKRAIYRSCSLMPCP
# ASSAY PROCEDURE: SPR off-rate, Biacore T100, ADAMTS5 immobilised, experiment 1
READOUT KIND: koff (s⁻¹)
Supply the numeric figure in s⁻¹, leaving out any unit text.

Which koff reading was recorded for the binder Nanobody 3B02 (VHH, tagged as tested (anti-Flag detection, IMAC); also called 03B02; 3B2) VHH: EVQLVESGGGFVQAGGSLRLSCVASRRTISSGTMGWFRQAPGKEREFVAAIRWSSGMPYYLDSVMDRFTISRDNAKNTVSLQMNSLQPEDTAVYYCAADRSAFRDPSFDVNYEYWGRGTLVTVSS ?
0.00073

Next binder: Nanobody 9D03 (VHH, tagged as tested (anti-Flag detection, IMAC); also called 09D03; 9D3) VHH: EVQLVESGGGLVQSGGSLRLSCAASGSAVSVNAMAWYRQAPGKQRDFVAGISRSAGRTYYTDSVKDRFTIARDSAKNTVYLQMNRLKPEDTAVYYCAADLDPNRIFSRDEAAYWGQGTLVTVSS
0.00098

Next binder: Nanobody 2F03 (VHH, tagged as tested (anti-Flag detection, IMAC); also called 02F03; 2F3) VHH: EVQLVESGGGLVQAGGSLRLSCAASGRTVSSYAMGWFRLAPGKEREFVAGISRSAERTYYVDSLKGRFTISRDSAKNTVYLHMNRLKPEDTAVYYCAADLDPNRIFSREEYAYWGQGTLVTVSS
3.3e-05
